Assay: qHTS of pediatric cancer cell lines to identify multiple opportunities for drug repurposing: Primary screen for control Hh wild type fibroblast cells (AID 1347106); further: nearly all actives have a fitted effect of over 55% in size
Conditions: Hh wild-type fibroblast viability, CellTiter-Glo luminescence, 48 h; series mostly up to 46 µM
Records with an inconclusive call do not appear. Calls of active or inactive are those of the source. The call rests on the fitted dose curve; in most records, active means well fitted cell-killing curve with a large enough effect; inconclusive means small, poorly fitted or top-dose-only effect; inactive means flat fitted curve, though single readings scatter.
Classes used: class 1 for active, class 0 for inactive

- NS(=O)(=O)c1ccc(Cl)c(S(N)(=O)=O)c1: class 0
- Oc1ccccc1C=NCc1ccccc1: class 0
- CCOc1ccccc1OCCN[C@H](C)Cc1ccc(OC)c(S(N)(=O)=O)c1: class 0
- CCCCN=C(N)N=C(N)N: class 0
- O=c1[nH]c(=O)n([C@H]2C[C@H](O)[C@@H](CO)O2)cc1F: class 0
- CN(Cc1ccc(C(C)(C)C)cc1)Cc1cccc2ccccc12: class 0
- Nc1nc(N)c(-c2ccccc2)s1: class 0
- C[C@@H](O)[C@H]1C(=O)N2C(C(=O)O)=C([C@H]3CCCO3)S[C@H]12: class 0
- CN1CCN(C2=Nc3ccccc3Sc3ccc(Cl)cc32)CC1: class 0
- CCCCOC(=O)CC(CC(=O)OCCCC)(OC(C)=O)C(=O)OCCCC: class 0
- CN1CCC[C@@H]1CCO[C@](C)(c1ccccc1)c1ccc(Cl)cc1: class 0
- CCN(CC)CCNc1ccc(CO)c2sc3ccccc3c(=O)c12: class 1
- Cc1cc(CC(=O)O)c(C)n1-c1ccc(Cl)cc1: class 0
- CNCCCCOc1ccccc1Cc1ccccc1: class 0

Cited source: PubChem BioAssay (NCATS)
